Test: protein stability index of a GFP-peptide fusion (yeast GPS) (PSI 1-4); higher = more stable; sorted into four equal gates, so the index is relative within each strain
Conditions: pdr5∆
MEASURED_ENDPOINT: protein stability index
Lab note: record just the number, no unit beside it.

Ask: Would you kindly share the measured protein stability index for REGRHSGYGKRKGTREA [RPL19A] ?
Result: 3.21

Ask: Would you kindly share the measured protein stability index for MSTFIFPGDSFPVDPTT [RRP40] ?
Result: 2.06

Ask: Would you kindly share the measured protein stability index for VYYSKRGFKVGLVCADT [SRP54] ?
Result: 2.29

Ask: Would you kindly share the measured protein stability index for SSLKESSPDTMKLTDLL [SNF12] ?
Result: 3.08

Ask: Would you kindly share the measured protein stability index for TANDQYSSILGNSFNKS [YCG1] ?
Result: 3.18

Ask: Would you kindly share the measured protein stability index for SGSQNISEFDSFTDILK [RPN12] ?
Result: 3.12

Ask: Would you kindly share the measured protein stability index for EEASQQQQLQQNSKEKN [MED2] ?
Result: 2.85

Ask: Would you kindly share the measured protein stability index for CTNLTNRTLYELADLPK [GRR1] ?
Result: 3.05

Ask: Would you kindly share the measured protein stability index for IGVVSLTNGVTEHVRQN [RRP6] ?
Result: 3.42

Ask: Would you kindly share the measured protein stability index for MKQLKFFKPLDYITEAV [SNU114] ?
Result: 2.05

Ask: Would you kindly share the measured protein stability index for QLEKKIRFVCLSNCLAN [BRR2] ?
Result: 1.32

Ask: Would you kindly share the measured protein stability index for LTRFSHDADLEVSMNSI [RPN1] ?
Result: 3.14

Ask: Would you kindly share the measured protein stability index for IVFVHSRKETSRTATWL [BRR2] ?
Result: 2.67

Ask: Would you kindly share the measured protein stability index for TPDASKPSFSFGVPNSS [YLR335W/NUP2] ?
Result: 3.14

Ask: Would you kindly share the measured protein stability index for PEGYKAKSISTSAKEPS [RPO31] ?
Result: 1.51

Ask: Would you kindly share the measured protein stability index for GCSKICDLSSKFNKSKA [YCS4] ?
Result: 2.82

Ask: Would you kindly share the measured protein stability index for SFLSGVKSLLSEEKIRD [SIR4] ?
Result: 3.11

Ask: Would you kindly share the measured protein stability index for WNKRDFMAFINACAKYG [ISW2] ?
Result: 1.24

Ask: Would you kindly share the measured protein stability index for LIELLEKLDVSRSSVCV [YCG1] ?
Result: 2.32

Ask: Would you kindly share the measured protein stability index for VANQTSATFLRIVGSEL [RPT2] ?
Result: 2.29

Ask: Would you kindly share the measured protein stability index for LSRAEYDSDSDSSVEDS [LIN1] ?
Result: 2.96

Ask: Would you kindly share the measured protein stability index for GEITFDGIGGLTEQIRE [RPT4] ?
Result: 3.45

Ask: Would you kindly share the measured protein stability index for EPYHFISNYNTKYTDDM [SRB8] ?
Result: 2.98

Ask: Would you kindly share the measured protein stability index for ADKKDDSESNSEPIDLI [ITC1] ?
Result: 3.32

Ask: Would you kindly share the measured protein stability index for DRKNRAPPQRPRFNREN [RPS26A] ?
Result: 2.64

Ask: Would you kindly share the measured protein stability index for SLELQSFQKIPLSRINE [YML103C/NUP188] ?
Result: 2.82

Ask: Would you kindly share the measured protein stability index for SSSIKSTGPTGAVSLNP [RRP4] ?
Result: 3.37

Ask: Would you kindly share the measured protein stability index for AAPPSTNFEILNEMLNT [DIS3] ?
Result: 2.83

Ask: Would you kindly share the measured protein stability index for AGILRGYDIFLNVVLDD [SMX2] ?
Result: 2.38

Ask: Would you kindly share the measured protein stability index for PDDDKIVPLTEGDIQVL [RPT1] ?
Result: 3.22

Ask: Would you kindly share the measured protein stability index for AKLHRISPKIWCAGAGT [PUP1] ?
Result: 1.87

Ask: Would you kindly share the measured protein stability index for GTCFGGSKLEDMSKILV [RET1] ?
Result: 3.3

Ask: Would you kindly share the measured protein stability index for AVNSIMALKFVSIKFTN [ECM29] ?
Result: 3.12

Ask: Would you kindly share the measured protein stability index for IPVGLMAQENSMERKVQ [MCD1] ?
Result: 3.38

Ask: Would you kindly share the measured protein stability index for FREAIVATEPLLDILVK [PRP8] ?
Result: 2.16

Ask: Would you kindly share the measured protein stability index for IQIDEETENSESIASSN [MCD1] ?
Result: 2.73

Ask: Would you kindly share the measured protein stability index for DLAVCATIIGIISTAIA [ECM29] ?
Result: 2.07

Ask: Would you kindly share the measured protein stability index for MAESLVDLEEVMDTIQE [SSN8] ?
Result: 3.02

Ask: Would you kindly share the measured protein stability index for GANDLGFTASVSNQENA [MED1] ?
Result: 3.17

Ask: Would you kindly share the measured protein stability index for FDNFLTEEELQAAVPDN [BRN1] ?
Result: 2.71

Ask: Would you kindly share the measured protein stability index for LKLSQAFGSSATDISGE [YJR042W/NUP85] ?
Result: 2.05

Ask: Would you kindly share the measured protein stability index for LSKFFFFIFVFNFVLLG [COB] ?
Result: 1.19

Ask: Would you kindly share the measured protein stability index for DHAIVTSPTMPDYYVSI [RPT2] ?
Result: 2.67

Ask: Would you kindly share the measured protein stability index for TFGINLIYVNPFMLQWG [FAS1] ?
Result: 2.35

Ask: Would you kindly share the measured protein stability index for KSIQDIVGLATLIVNTD [SRP21] ?
Result: 3.05

Ask: Would you kindly share the measured protein stability index for FEENDHPNRVLEHLHST [COR1] ?
Result: 2.95

Ask: Would you kindly share the measured protein stability index for EVNSKKKNKRALPNIEN [BRR2] ?
Result: 3.2

Ask: Would you kindly share the measured protein stability index for TSQMDLARDTPSANNSS [RRP4] ?
Result: 1.46

Ask: Would you kindly share the measured protein stability index for ADEDDEDAKYVINLKQI [RPT1] ?
Result: 2.66

Ask: Would you kindly share the measured protein stability index for LREVVELPLLSPERFAT [RPT1] ?
Result: 2.54

Ask: Would you kindly share the measured protein stability index for KTRFKGSQFIVVSLKEG [SMC2] ?
Result: 3.16

Ask: Would you kindly share the measured protein stability index for AVDNCAICRNHIMEPCI [HRT1] ?
Result: 2.79

Ask: Would you kindly share the measured protein stability index for GKEFEARNLIEDEDDGE [RPC53] ?
Result: 3.58

Ask: Would you kindly share the measured protein stability index for ANVLDPSLRKLIESGIG [BRR2] ?
Result: 2.38

Ask: Would you kindly share the measured protein stability index for LFSEKTIRYLMQKQHEM [SNF6] ?
Result: 2.55

Ask: Would you kindly share the measured protein stability index for PRLSHLSLTAVPSFLRP [GRR1] ?
Result: 1.93

Ask: Would you kindly share the measured protein stability index for MSESSDISAMQPVNPKP [SMX3] ?
Result: 3.51

Ask: Would you kindly share the measured protein stability index for KISLRDICLKLNLDSEQ [RPN3] ?
Result: 3.34
